src = patent US20110318339A1

# TESTED SYSTEM: T1, recombinant human DLL4 (Cat# 1506-D4/CF, R&D Systems) (human, UniProt Q9NR61 27-529)
# T1 construct: Bought protein; also called hDLL4; rHuman DLL4
# EXPERIMENTAL DETAILS: ELISA, DLL4 coated, Fab 2.22 nM
PROPERTY MEASURED: ELISA absorbance at 450 nm

[
  {
    "BINDER": "Fab VH5-51_IGHD5-18*01>3_IGHJ4*01 G100K/G104T G24L/S28R/G35V & V3-4_IGLJ1*01 (Fab, V domains shown, Fab made in E. coli: VH on CH1 with His6 and Flag tags (Plasmid A), VL on lambda CL (Plasmid E); also called H: KT LRV & L: wt) VH: EVQLVQSGAEVKKPGESLKISCKLSGYRFTSYWIVWVRQMPGKGLEWMGIIYPGDSDTRYSPSFQGQVTISADKSISTAYLQWSSLKASDTAMYYCARRKYSYTYDYFDYWGQGTLVTVSS VL: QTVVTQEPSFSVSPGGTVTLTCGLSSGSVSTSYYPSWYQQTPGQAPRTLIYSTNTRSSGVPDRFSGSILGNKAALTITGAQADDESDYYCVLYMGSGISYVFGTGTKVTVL",
    "PROPERTY MEASURED": "ELISA absorbance at 450 nm",
    "OBS VALUE": "0 A450"
  },
  {
    "BINDER": "Fab VH5-51_IGHD5-18*01>3_IGHJ4*01 G100K/G104T G24A/S28R/G35V & V3-4_IGLJ1*01 (Fab, V domains shown, Fab made in E. coli: VH on CH1 with His6 and Flag tags (Plasmid A), VL on lambda CL (Plasmid E); also called H: KT ARV & L: wt) VH: EVQLVQSGAEVKKPGESLKISCKASGYRFTSYWIVWVRQMPGKGLEWMGIIYPGDSDTRYSPSFQGQVTISADKSISTAYLQWSSLKASDTAMYYCARRKYSYTYDYFDYWGQGTLVTVSS VL: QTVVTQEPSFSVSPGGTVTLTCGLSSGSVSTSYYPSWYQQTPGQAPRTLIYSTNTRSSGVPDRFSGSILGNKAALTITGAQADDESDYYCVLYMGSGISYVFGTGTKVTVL",
    "PROPERTY MEASURED": "ELISA absorbance at 450 nm",
    "OBS VALUE": "0.002 A450"
  },
  {
    "BINDER": "Fab VH5-51_IGHD5-18*01>3_IGHJ4*01 G100K/G104T S28R & V3-4_IGLJ1*01 (Fab, V domains shown, Fab made in E. coli: VH on CH1 with His6 and Flag tags (Plasmid A), VL on lambda CL (Plasmid E); also called H: KT S28R & L: wt) VH: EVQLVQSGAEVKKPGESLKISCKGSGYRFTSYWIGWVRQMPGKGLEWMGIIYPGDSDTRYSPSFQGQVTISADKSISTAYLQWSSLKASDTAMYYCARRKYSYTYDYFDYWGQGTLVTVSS VL: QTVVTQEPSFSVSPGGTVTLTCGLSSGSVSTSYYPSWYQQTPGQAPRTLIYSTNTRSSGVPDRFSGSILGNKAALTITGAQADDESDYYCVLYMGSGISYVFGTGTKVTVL",
    "PROPERTY MEASURED": "ELISA absorbance at 450 nm",
    "OBS VALUE": "0 A450"
  },
  {
    "BINDER": "Fab VH5-51_IGHD5-18*01>3_IGHJ4*01 G100K/G104T & V3-4_IGLJ1*01 (Fab, V domains shown, Fab made in E. coli: VH on CH1 with His6 and Flag tags (Plasmid A), VL on lambda CL (Plasmid E); also called H: KT & L: wt) VH: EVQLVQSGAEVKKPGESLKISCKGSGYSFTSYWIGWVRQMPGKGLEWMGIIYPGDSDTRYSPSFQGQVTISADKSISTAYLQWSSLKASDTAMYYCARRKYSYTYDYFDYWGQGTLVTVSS VL: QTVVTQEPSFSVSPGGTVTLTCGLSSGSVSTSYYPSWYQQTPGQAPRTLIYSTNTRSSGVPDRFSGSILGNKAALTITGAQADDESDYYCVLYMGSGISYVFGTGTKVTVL",
    "PROPERTY MEASURED": "ELISA absorbance at 450 nm",
    "OBS VALUE": "0.014 A450"
  },
  {
    "BINDER": "Fab VH1-46_IGHD6-6*01_IGHJ1*01 S102A/S103P/S104F/H111F N52L/S54T/G56H & L6_IGKJ1*01 S28N/S30D/S31H S52L/A55G (Fab, V domains shown, Fab made in E. coli: VH on CH1 with His6 and Flag tags (Plasmid A), VL on kappa CL (Plasmid C); also called H: APFF LTH & L: NDH LG) VH: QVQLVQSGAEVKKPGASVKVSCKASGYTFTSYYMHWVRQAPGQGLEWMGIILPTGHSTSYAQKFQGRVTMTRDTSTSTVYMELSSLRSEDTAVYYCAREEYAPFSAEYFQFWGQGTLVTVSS VL: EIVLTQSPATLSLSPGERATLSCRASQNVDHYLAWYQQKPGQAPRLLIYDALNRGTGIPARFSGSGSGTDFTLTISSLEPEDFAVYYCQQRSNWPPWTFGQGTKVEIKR",
    "PROPERTY MEASURED": "ELISA absorbance at 450 nm",
    "OBS VALUE": "0.594 A450"
  }
]
